Molecular target: Sigma non-opioid intracellular receptor 1 (Cavia porcellus, UniProt Q60492)
Sequence (Q60492 whole entry): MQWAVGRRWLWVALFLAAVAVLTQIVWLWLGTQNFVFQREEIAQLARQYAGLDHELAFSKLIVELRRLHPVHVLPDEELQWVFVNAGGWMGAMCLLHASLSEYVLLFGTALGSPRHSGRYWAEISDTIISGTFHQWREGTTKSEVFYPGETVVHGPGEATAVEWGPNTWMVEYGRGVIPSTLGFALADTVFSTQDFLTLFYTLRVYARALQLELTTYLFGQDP
Test: Displacement of [3H]-pentazocine from sigma1 receptor in guinea pig brain membrane at 1 uM by liquid scintillation counting analysis relative to control
Type: cell membranes
Each item that follows carries a reported pKi.
Here pKi is given on a logarithmic scale as minus log10 of the concentration in mol/L.

What does the record list as pKi for O=C1CC2(CN(CCC3CCCCC3)C2)CN1c1ccc(F)cc1 ? 7.41

What does the record list as pKi for Cc1cc(OCCN2CCOCC2)nn1-c1ccc2ccccc2c1 ? 7.89

What does the record list as pKi for Cc1cccc(CCN2CC3(CC(=O)N(c4ccc(F)cc4)C3)C2)c1 ? 7.32

---

Each item that follows carries a reported pKi.
Molecular target: Sigma non-opioid intracellular receptor 1 (Cavia porcellus)
Test: Displacement of [3H]-pentazocine from sigma1 receptor in guinea pig brain membrane at 1 uM by liquid scintillation counting analysis relative to control
Type: cell membranes
Here pKi is given on a logarithmic scale as minus log10 of the concentration in mol/L.

Example compounds with recorded pKi:
- compound: "Cc1ccc(CCCN2CC3(CC(=O)N(c4ccccc4)C3)C2)cc1"
  pKi: 7.84
- compound: "Cc1ccc(N2CC3(CC2=O)CN(CCCc2ccccc2)C3)cc1"
  pKi: 7.17
- compound: "O=C1CC2(CN(CCCc3ccccc3)C2)CN1c1ccccc1"
  pKi: 7.31
- compound: "O=C1CC2(CN(CCCc3ccc(F)cc3)C2)CN1c1ccccc1"
  pKi: 7.77

What does the record list as pKi for O=C1CC2(CN(CCC3CCCCC3)C2)CN1c1ccccc1 ? 7.37

What does the record list as pKi for O=C1CC2(CN(CCCc3ccccc3)C2)CN1Cc1ccccc1 ? 7.08

What does the record list as pKi for O=C1CC2(CN(CCc3ccccc3)C2)CN1c1ccccc1 ? 6.76

---

Assay: Observed MRT(0 to infinity) in C57BL/6J mouse at 10 mg/kg, ip measured after 24 hrs by LC-MS/MS analysis
Assay type: ADME, organism-based
Details: in vivo
metric.name: MRT inf (h)
Answer with a number only, understood to be in h.

What does the record list as MRT inf for Cc1ccc(CCCN2CC3(CC(=O)N(c4ccccc4)C3)C2)cc1 ? 2.08

---

Target: Sigma non-opioid intracellular receptor 1 (Homo sapiens)
Sequence (Q99720 whole entry): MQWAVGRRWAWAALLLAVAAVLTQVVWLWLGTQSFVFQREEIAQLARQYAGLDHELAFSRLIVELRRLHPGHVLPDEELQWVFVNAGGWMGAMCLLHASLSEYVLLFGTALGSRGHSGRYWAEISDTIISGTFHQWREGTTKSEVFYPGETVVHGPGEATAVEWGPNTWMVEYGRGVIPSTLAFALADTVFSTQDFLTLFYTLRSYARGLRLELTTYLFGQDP
Test: Antagonist activity at sigma1 receptor (unknown origin)
metric.name: pIC50
Here pIC50 is given on a logarithmic scale as minus log10 of the concentration in mol/L.

What does the record list as pIC50 for Cc1ccc(CCCN2CC3(CC(=O)N(c4ccccc4)C3)C2)cc1 ? 7.72

---

Target: Sigma intracellular receptor 2 (Homo sapiens)
Sequence (Q5BJF2 whole entry): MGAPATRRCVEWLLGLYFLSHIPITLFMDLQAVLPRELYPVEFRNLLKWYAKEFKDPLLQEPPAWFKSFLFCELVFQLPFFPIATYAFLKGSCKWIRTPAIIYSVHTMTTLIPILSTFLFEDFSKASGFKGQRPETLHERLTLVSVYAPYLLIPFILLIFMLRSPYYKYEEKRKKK
Assay: Antagonist activity at sigma2 receptor (unknown origin)
metric.name: IC50 (nM)
Answer with a number only, understood to be in nM.

What does the record list as IC50 for Cc1ccc(CCCN2CC3(CC(=O)N(c4ccccc4)C3)C2)cc1 ? 227

---

Test: AUClast in C57BL/6J mouse at 10 mg/kg, ip measured after 24 hrs by LC-MS/MS analysis
Assay type: ADME, organism-based
Set-up: time 24 hrs, dose 10 mg/kg, route ip
Conditions: in vivo
metric.name: AUC(0-t) at 24 h (ng·h/mL)
Answer with a number only, understood to be in ng·h/mL.

What does the record list as AUC(0-t) at 24 h for Cc1ccc(CCCN2CC3(CC(=O)N(c4ccccc4)C3)C2)cc1 ? 2240

---

Test: Drug concentration in brain of C57BL/6J mouse at 10 mg/kg, ip measured after 4 hrs by LC-MS/MS analysis
Assay type: ADME, organism-based
Conditions: read-out: Drug uptake
metric.name: concentration at 4 h (ng/g)
Answer with a number only, understood to be in ng/g.

What does the record list as concentration at 4 h for Cc1ccc(CCCN2CC3(CC(=O)N(c4ccccc4)C3)C2)cc1 ? 609

---

Experiment: Ratio of drug concentration in brain to plasma in C57BL/6J mouse at 10 mg/kg, ip measured after 4 hrs by LC-MS/MS analysis
Type: ADME, organism-based
Conditions: read-out: BPR
metric.name: Kp at 4 h
Please give the numeric answer without any surrounding text.

What does the record list as Kp at 4 h for Cc1ccc(CCCN2CC3(CC(=O)N(c4ccccc4)C3)C2)cc1 ? 7.8

---

Assay: Drug concentration in plasma of C57BL/6J mouse at 10 mg/kg, ip measured after 4 hrs by LC-MS/MS analysis
Format: ADME, organism-based
metric.name: concentration at 4 h
Reply with a number, then the unit it belongs to.

What does the record list as concentration at 4 h for Cc1ccc(CCCN2CC3(CC(=O)N(c4ccccc4)C3)C2)cc1 ? 78 ng/mL

---

Target: Sigma non-opioid intracellular receptor 1 (Cavia porcellus)
Test: Displacement of [3H]-pentazocine from sigma1 receptor in guinea pig brain membrane assessed as inhibition constant in presence of phenytoin by liquid scintillation counting analysis
Assay type: cell membranes
metric.name: Ki (nM)
Answer with a number only, understood to be in nM.

What does the record list as Ki for Cc1ccc(CCCN2CC3(CC(=O)N(c4ccccc4)C3)C2)cc1 ? 37.2

---

Experiment: Tmax in C57BL/6J mouse at 10 mg/kg, ip measured after 24 hrs by LC-MS/MS analysis
Type: ADME, organism-based
Conditions: in vivo
metric.name: Tmax (min)
Answer with a number only, understood to be in min.

What does the record list as Tmax for Cc1ccc(CCCN2CC3(CC(=O)N(c4ccccc4)C3)C2)cc1 ? 15

---

Assay: Cmax in C57BL/6J mouse at 10 mg/kg, ip measured after 24 hrs by LC-MS/MS analysis
Format: ADME, organism-based
Design: time 24 hrs, dose 10 mg/kg, route ip
Details: in vivo
metric.name: Cmax (ng/mL)
Answer with a number only, understood to be in ng/mL.

What does the record list as Cmax for Cc1ccc(CCCN2CC3(CC(=O)N(c4ccccc4)C3)C2)cc1 ? 990

---

Assay: Half life in C57BL/6J mouse at 10 mg/kg, ip measured after 24 hrs by LC-MS/MS analysis
Type: ADME, organism-based
Conditions: in vivo
metric.name: half-life (h)
Answer with a number only, understood to be in h.

What does the record list as half-life for Cc1ccc(CCCN2CC3(CC(=O)N(c4ccccc4)C3)C2)cc1 ? 1.42

---

Assay: Drug concentration in brain of C57BL/6J mouse at 10 mg/kg, ip measured after 1 hrs by LC-MS/MS analysis
Assay type: ADME, organism-based
Conditions: read-out: Drug uptake
metric.name: concentration at 1 h
Reply with a number, then the unit it belongs to.

What does the record list as concentration at 1 h for Cc1ccc(CCCN2CC3(CC(=O)N(c4ccccc4)C3)C2)cc1 ? 3790 ng/g

---

Assay: Drug concentration in plasma of C57BL/6J mouse at 10 mg/kg, ip measured after 1 hrs by LC-MS/MS analysis
Format: ADME, organism-based
metric.name: concentration at 1 h (µg/mL)
Answer with a number only, understood to be in µg/mL.

What does the record list as concentration at 1 h for Cc1ccc(CCCN2CC3(CC(=O)N(c4ccccc4)C3)C2)cc1 ? 0.513

---

Each item that follows carries a reported Ki.
Biological target: Sigma non-opioid intracellular receptor 1 (Cavia porcellus, UniProt Q60492)
Experiment: Displacement of [3H]-pentazocine from sigma1 receptor in guinea pig brain membrane at 1 uM by liquid scintillation counting analysis relative to control
Assay type: cell membranes
Answer with a number only, understood to be in nM.

Example compounds with recorded Ki:
- smiles: "Cc1cccc(CCCN2CC3(CC(=O)N(c4ccccc4)C3)C2)c1"
  study.target: "Sigma non-opioid intracellular receptor 1 (Cavia porcellus, UniProt Q60492)"
  Ki (nM): 33
- smiles: "Cc1cccc(N2CC3(CC2=O)CN(CCCc2ccccc2)C3)c1"
  study.target: "Sigma non-opioid intracellular receptor 1 (Cavia porcellus, UniProt Q60492)"
  Ki (nM): 49.7

--- query ---
What does the record list as Ki for O=C1CC2(CN(CCCc3ccccc3F)C2)CN1c1ccccc1 ? 44.5

---

Target: Sigma non-opioid intracellular receptor 1 (Cavia porcellus, UniProt Q60492)
Experiment: Displacement of [3H]-pentazocine from sigma1 receptor in guinea pig brain membrane at 1 uM by liquid scintillation counting analysis relative to control
Type: cell membranes
Each item that follows carries a reported Ki.
Reply with a number, then the unit it belongs to.

Example molecules with recorded Ki:
- molecule: "O=C1CC2(CN(CCc3ccc4ccccc4c3)C2)CN1c1ccccc1"
  study.target: "Sigma non-opioid intracellular receptor 1 (Cavia porcellus, UniProt Q60492)"
  metric.name: "Ki"
  measured.value: "60.4 nM"
- molecule: "CC(Cc1ccccc1)N1CC2(CC(=O)N(c3ccc(F)cc3)C2)C1 (stereo unspecified)"
  study.target: "Sigma non-opioid intracellular receptor 1 (Cavia porcellus, UniProt Q60492)"
  metric.name: "Ki"
  measured.value: "181 nM"
- molecule: "O=C1CC2(CN(CCCc3ccccc3)C2)CN1c1ccc(F)cc1"
  study.target: "Sigma non-opioid intracellular receptor 1 (Cavia porcellus, UniProt Q60492)"
  metric.name: "Ki"
  measured.value: "34.9 nM"
- molecule: "O=C1CC2(CN(CCCc3cccc(F)c3)C2)CN1c1ccccc1"
  study.target: "Sigma non-opioid intracellular receptor 1 (Cavia porcellus, UniProt Q60492)"
  metric.name: "Ki"
  measured.value: "26.8 nM"
- molecule: "CC(Cc1ccccc1)N1CC2(CC(=O)N(c3ccccc3)C2)C1 (stereo unspecified)"
  study.target: "Sigma non-opioid intracellular receptor 1 (Cavia porcellus, UniProt Q60492)"
  metric.name: "Ki"
  measured.value: "40.5 nM"

What does the record list as Ki for O=C1CC2(CN(CCc3cccc(F)c3)C2)CN1c1ccccc1 ? 393 nM
